Tested on: NCI-H226
protocol summary: NCI tumour cell line growth inhibition, 48 h
Calls of active or inactive are those of the source. Rule as the data show it: active = GI50 up to about 1.1 µM and inactive = higher.
Write down the outcome that applies. Available outcomes: active, inactive

Past entries and their recorded results:
N/C(=N\O)N/N=C\c1cc([N+](=O)[O-])cc([N+](=O)[O-])c1O    inactive
CC(=O)NC1C(OC(C)C(=O)NC(C(=O)NC(CCC(=O)NCCCNC2c3ccccc3Nc3cccc([N+](=O)[O-])c32)C(N)=O)C(C)C)C(O)C(CO)OC1(C)OCc1ccccc1 (stereo not given)    inactive
CC[C@@]1(O)C(=O)OCc2c1cc1n(c2=O)Cc2c-1nc1ccccc1c2/C=N\NC(=O)C[n+]1ccccc1    active
O=C1C=CC(O)C2C1CC13SSC4(CC5C(=O)C=CC(O)C5N4C1=O)C(=O)N23 (stereo not given)    active
c1ccc2c(c1)c1c(n2CCOCCN2CCCC2)CCCC1    inactive

Q: // param item: Fc1ccc2c(c1)nc1n2C(c2c(Cl)cccc2Cl)SC1 (stereo not given) ; yields the recorded call
Ans: inactive

Q: Another compound to check: CCCCCN1C(=O)C(Cc2ccccc2)N=C(c2ccc(O)cc2)c2cc(Cl)ccc21 (stereo not given)
Ans: inactive
